target: human HER3 endogenously expressed on human cancer cells (SK-Br-3, BT-474, MCF7) (human, UniProt P21860 20-1342); test: cell-based or functional assay
Measured Endpoint: SK-Br-3 pHER3 % inhibition (%)

[[record]]
binder = "MOR14534 (antibody, human IgG1, kappa, V domains shown, Tested as IgG) VH: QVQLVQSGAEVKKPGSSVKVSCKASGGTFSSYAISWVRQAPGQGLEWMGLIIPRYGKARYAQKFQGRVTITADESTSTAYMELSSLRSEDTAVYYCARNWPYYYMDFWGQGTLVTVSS VL: EIVLTQSPATLSLSPGERATLSCRASQNIVFNLAWYQQKPGQAPRLLIYDASNRATGIPARFSGSGSGTDFTLTISSLEPEDFAVYYCQQTKNRPPTFGQGTKVEIKR"
measured_endpoint = "SK-Br-3 pHER3 % inhibition"
observed = 63

[[record]]
binder = "MOR13662 (antibody, human IgG1, lambda, V domains shown) VH: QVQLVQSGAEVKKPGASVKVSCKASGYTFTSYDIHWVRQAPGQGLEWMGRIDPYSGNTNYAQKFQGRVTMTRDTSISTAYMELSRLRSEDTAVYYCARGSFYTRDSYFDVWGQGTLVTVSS VL: DIALTQPASVSGSPGQSITISCTGTSSDVGTYNQVSWYQQHPGKAPKLMIYGVSKRPSGVSNRFSGSKSGNTASLTISGLQAEDEADYYCYSRAKTHWTDVFGGGTKLTVLG"
measured_endpoint = "SK-Br-3 pHER3 % inhibition"
observed = 56

